Hey, just so you know, these numbers are from the supplement of paper PMC8671470.

Tested on: SHI-1
protocol notes: cell viability (% survival relative to DMSO control, bortezomib = 0%); higher = less cytotoxic
measurement context: 100 nM; 72 h
Quick reference for cell viability among some compounds
property: cell viability (%)

>>> reported_measurement("COc1c(C)c2c(c(O)c1C/C=C(\\C)CCC(=O)O)C(=O)OC2 [Mycophenolic acid]")
92
>>> reported_measurement("C[C@]12O[C@H](C[C@]1(O)CO)n1c3ccccc3c3c4c(c5c6ccccc6n2c5c31)CNC4=O [Lestaurtinib]")
37.1
>>> reported_measurement("Cc1c(-c2ccccc2)oc2c(C(=O)OCCN3CCCCC3)cccc2c1=O.Cl [Flavoxate]")
97.6
>>> reported_measurement("CCOC(=O)[C@H]1O[C@@H]1C(=O)N[C@@H](CC(C)C)C(=O)NCCC(C)C [Aloxistatin]")
104
>>> reported_measurement("CCOC(=O)[C@@]1(CCCCCCOc2ccc(Cl)cc2)CO1 [Etomoxir]")
110
>>> reported_measurement("Nc1ncnc2c1ncn2[C@@H]1O[C@H](CSCC[C@H](N)C(=O)O)[C@@H](O)[C@H]1O [S-Adenosyl Homocysteine]")
111
>>> reported_measurement("CCCc1nn(C)c2c(O)nc(-c3cc(S(=O)(=O)N4CCN(C)CC4)ccc3OCC)nc12 [Sildenafil]")
104
>>> reported_measurement("C#Cc1cnc(O)nc1O [Eniluracil]")
114

====

Tested on: K-562
protocol notes: cell viability (% survival relative to DMSO control, bortezomib = 0%); higher = less cytotoxic
measurement context: 1 nM; 72 h
Consider the cut-off 90%. If the recorded cell viability is strictly smaller, the label is condition met; if not, the label is condition not met.

>>> qualitative_label("O=C(O)c1cc2sccc2[nH]1 [4H-thieno[3,2-b]pyrrole-5-carboxylic acid]")
"condition met"
>>> qualitative_label("CN(C)c1nc(O)c2[nH]cnc2n1 [2-Dimethylamino-6-hydroxypurine]")
"condition not met"
>>> qualitative_label("CN(C/C=C/C#CC(C)(C)C)Cc1cccc2ccccc12 [Terbinafine]")
"condition not met"
>>> qualitative_label("Nc1ncnc2c1ncn2[C@@H]1O[C@H](CSCC[C@H](N)C(=O)O)[C@@H](O)[C@H]1O [S-Adenosyl Homocysteine]")
"condition not met"
>>> qualitative_label("Clc1ccc2c(c1Cl)CNCC2")
"condition not met"
>>> qualitative_label("C=CCc1ccc2c(c1O)C(=O)c1ccccc1C2=O [R162]")
"condition not met"
>>> qualitative_label("CC12CCC(O)CC1CCC1C2CCC2(C)C(C3=CC(=O)OC3)CCC12O (centres undefined) [Digitoxigenin]")
"condition not met"
>>> qualitative_label("N[C@](CCCCB(O)O)(CCN1CCCCC1)C(=O)O [Arginase inhibitor 1]")
"condition not met"
>>> qualitative_label("CCOC(=O)[C@@]1(CCCCCCOc2ccc(Cl)cc2)CO1 [Etomoxir]")
"condition not met"
>>> qualitative_label("CC(Cc1ccc(O)c(O)c1)C(C)Cc1ccc(O)c(O)c1 (centres undefined) [Masoprocol]")
"condition met"

====

System: NOMO-1
protocol notes: cell viability (% survival relative to DMSO control, bortezomib = 0%); higher = less cytotoxic
measurement context: 10 nM; 72 h
property: cell viability (%)

>>> reported_measurement("O=C(O)c1cc2sccc2[nH]1 [4H-thieno[3,2-b]pyrrole-5-carboxylic acid]")
97.8
>>> reported_measurement("O=C1Nc2ccccc2/C1=C\\NCCc1ccc(O)c(O)c1 [AC1NZZMF]")
111
>>> reported_measurement("C=CCc1ccc2c(c1O)C(=O)c1ccccc1C2=O [R162]")
92.1
>>> reported_measurement("Cc1noc2c1-c1ccccc1C(c1ccc(Cl)cc1)=N[C@H]2CC(N)=O [CPI-0610]")
96.3
>>> reported_measurement("Clc1ccc2c(c1Cl)CNCC2")
100

====

# reported cell viability; entries follow
System: myeloid leukemia patient primary cells Pat.11
protocol notes: cell viability (% survival relative to DMSO control); higher = less cytotoxic
measurement context: 1000 nM; 72 h
property: cell viability (%)

>>> reported_measurement("CCN(CC)CCN(Cc1ccc(-c2ccc(C(F)(F)F)cc2)cc1)C(=O)Cn1c(SCc2ccc(F)cc2)nc(=O)c2c1CCC2 [Darapladib]")
88.2
>>> reported_measurement("Nc1ccn([C@@H]2O[C@H](CO)[C@@H](O)[C@@H]2O)c(=O)n1 [Cytarabine]")
89.3
>>> reported_measurement("CC12CCC(O)CC1CCC1C2CCC2(C)C(C3=CC(=O)OC3)CCC12O (stereo not given) [Digitoxigenin]")
31.9
>>> reported_measurement("Cc1noc2c1-c1ccccc1C(c1ccc(Cl)cc1)=N[C@H]2CC(N)=O [CPI-0610]")
54.3
>>> reported_measurement("Sc1ncnc2nc[nH]c12 [6-mercaptopurine]")
97.9

====

Tested on: NOMO-1
protocol notes: cell viability (% survival relative to DMSO control, bortezomib = 0%); higher = less cytotoxic
measurement context: 10 nM; 72 h
property: cell viability (%)

>>> reported_measurement("CCOC(=O)[C@H]1O[C@@H]1C(=O)N[C@@H](CC(C)C)C(=O)NCCC(C)C [Aloxistatin]")
109
>>> reported_measurement("O=C(COc1ccc(C(=O)c2ccccc2)cc1)NC1CCN(Cc2ccccc2)CC1 [AdipoRon]")
107
>>> reported_measurement("O=C(O)CC[C@H](NC(=O)c1ccc([N+](=O)[O-])cc1)C(=O)O [(S)-2-(4-Nitrobenzamido)pentanedioic acid]")
95
>>> reported_measurement("C[C@H]1O[C@@H](O[C@H]2[C@@H](O)C[C@H](O[C@H]3[C@@H](O)C[C@H](O[C@H]4CC[C@@]5(C)[C@H](CC[C@@H]6[C@@H]5C[C@@H](O)[C@]5(C)[C@@H](C7=CC(=O)OC7)CC[C@]65O)C4)O[C@@H]3C)O[C@@H]2C)C[C@H](O)[C@@H]1O [Digoxin]")
105
>>> reported_measurement("CCN(CC)CCN(Cc1ccc(-c2ccc(C(F)(F)F)cc2)cc1)C(=O)Cn1c(SCc2ccc(F)cc2)nc(=O)c2c1CCC2 [Darapladib]")
98.8
>>> reported_measurement("O=P(O)(O)C(O)(Cn1ccnc1)P(=O)(O)O [Zoledronic acid]")
101

====

System: myeloid leukemia patient primary cells Pat.8
protocol notes: area under dose-response curve (viability, 1 nM-10 uM) (fraction (0-1)); higher = more sensitive
measurement context: 72 h
property: area under dose-response curve

>>> reported_measurement("CC12CCC(O)CC1CCC1C2CCC2(C)C(C3=CC(=O)OC3)CCC12O (centres undefined) [Digitoxigenin]")
0.391
>>> reported_measurement("COc1c(C)c2c(c(O)c1C/C=C(\\C)CCC(=O)O)C(=O)OC2 [Mycophenolic acid]")
0.0355
>>> reported_measurement("CC(Cc1ccc(O)c(O)c1)C(C)Cc1ccc(O)c(O)c1 (centres undefined) [Masoprocol]")
0.186

====

Test system: BV-173
protocol notes: cell viability (% survival relative to DMSO control, bortezomib = 0%); higher = less cytotoxic
measurement context: 1000 nM; 72 h
Reported cell viability is given for each of the following molecules.
property: cell viability (%)

>>> reported_measurement("O=C(O)c1nn(Cc2ccc(Cl)cc2Cl)c2ccccc12 [Lonidamine]")
90.1
>>> reported_measurement("CC(C)Cc1sc(N)nc1-c1ccc(P(=O)(O)O)o1")
95.2
>>> reported_measurement("O=C(O)C(Cl)Cl [Dichloroacetate]")
95.7
>>> reported_measurement("CCN(CC)CCN(Cc1ccc(-c2ccc(C(F)(F)F)cc2)cc1)C(=O)Cn1c(SCc2ccc(F)cc2)nc(=O)c2c1CCC2 [Darapladib]")
79.1
>>> reported_measurement("c1ccc2c(c1)OCC(=C1NCCN1)O2 [Idazoxan]")
89.3
>>> reported_measurement("Cc1noc2c1-c1ccccc1C(c1ccc(Cl)cc1)=N[C@H]2CC(N)=O [CPI-0610]")
33.5
>>> reported_measurement("CC(C(=O)O)C(=O)O [Methylmalonate]")
98.3
>>> reported_measurement("OCCN1CCN(CCCN2c3ccccc3Sc3ccc(Cl)cc32)CC1 [Perphenazine]")
117
>>> reported_measurement("Nc1ccn([C@@H]2O[C@H](CO)[C@@H](O)[C@@H]2O)c(=O)n1 [Cytarabine]")
-1.03
>>> reported_measurement("C#Cc1cnc(O)nc1O [Eniluracil]")
109
>>> reported_measurement("Sc1ncnc2nc[nH]c12 [6-mercaptopurine]")
38.8
>>> reported_measurement("Cc1c(-c2ccccc2)oc2c(C(=O)OCCN3CCCCC3)cccc2c1=O.Cl [Flavoxate]")
94.1
>>> reported_measurement("COc1cc2c(NC3CCN(C)CC3)nc(N3CCCN(C)CC3)nc2cc1OCCCN(C)C [UNC0224]")
91.6

====

System: HL-60
protocol notes: cell viability (% survival relative to DMSO control); higher = less cytotoxic
measurement context: 0.001 µM; 72 h; co-treatment: GSK2194069 100 nM
property: cell viability (%)

>>> reported_measurement("C[C@H]1O[C@@H](O[C@H]2[C@@H](O)C[C@H](O[C@H]3[C@@H](O)C[C@H](O[C@H]4CC[C@@]5(C)[C@H](CC[C@@H]6[C@@H]5C[C@@H](O)[C@]5(C)[C@@H](C7=CC(=O)OC7)CC[C@]65O)C4)O[C@@H]3C)O[C@@H]2C)C[C@H](O)[C@@H]1O")
84.4
>>> reported_measurement("O=C(O)C(Cl)Cl [Dichloroacetate]")
98.6
>>> reported_measurement("COc1cc2c(NC3CCN(C)CC3)nc(N3CCCN(C)CC3)nc2cc1OCCCN(C)C")
114
>>> reported_measurement("Cc1noc2c1-c1ccccc1C(c1ccc(Cl)cc1)=N[C@H]2CC(N)=O")
101
>>> reported_measurement("C1CCc2nnc(C34CC5CC(CC(C5)C3)C4)n2CC1")
105
>>> reported_measurement("CCCc1nn(C)c2c(O)nc(-c3cc(S(=O)(=O)N4CCN(C)CC4)ccc3OCC)nc12")
91.3
>>> reported_measurement("CCOc1ccc(Cc2cc([C@@H]3O[C@H](CO)[C@@H](O)[C@H](O)[C@H]3O)ccc2Cl)cc1")
101
>>> reported_measurement("CCN(CC)CCN(Cc1ccc(-c2ccc(C(F)(F)F)cc2)cc1)C(=O)Cn1c(SCc2ccc(F)cc2)nc(=O)c2c1CCC2")
98.7
>>> reported_measurement("CC12CCC(O)CC1CCC1C2CCC2(C)C(C3=CC(=O)OC3)CCC12O (stereo not given)")
98.2
>>> reported_measurement("Sc1ncnc2nc[nH]c12")
99.9
>>> reported_measurement("CN(C)c1nc(O)c2[nH]cnc2n1 [2-Dimethylamino-6-hydroxypurine]")
98.8
>>> reported_measurement("CC(C(=O)O)C(=O)O [methylmalonate]")
101
>>> reported_measurement("NC(=O)c1ncn([C@@H]2O[C@H](CO)[C@@H](O)[C@H]2O)n1")
92.1
>>> reported_measurement("C[C@]12O[C@H](C[C@]1(O)CO)n1c3ccccc3c3c4c(c5c6ccccc6n2c5c31)CNC4=O")
107
>>> reported_measurement("CCOC(=O)N1c2ccc(C(F)(F)F)cc2[C@@H](N(Cc2cc(C(F)(F)F)cc(C(F)(F)F)c2)C(=O)OC)C[C@H]1CC")
101
